Tested On: high affinity CNS nicotinic receptors (Rattus norvegicus, UniProt P09483+P12390)
Sequence (P09483 31-630): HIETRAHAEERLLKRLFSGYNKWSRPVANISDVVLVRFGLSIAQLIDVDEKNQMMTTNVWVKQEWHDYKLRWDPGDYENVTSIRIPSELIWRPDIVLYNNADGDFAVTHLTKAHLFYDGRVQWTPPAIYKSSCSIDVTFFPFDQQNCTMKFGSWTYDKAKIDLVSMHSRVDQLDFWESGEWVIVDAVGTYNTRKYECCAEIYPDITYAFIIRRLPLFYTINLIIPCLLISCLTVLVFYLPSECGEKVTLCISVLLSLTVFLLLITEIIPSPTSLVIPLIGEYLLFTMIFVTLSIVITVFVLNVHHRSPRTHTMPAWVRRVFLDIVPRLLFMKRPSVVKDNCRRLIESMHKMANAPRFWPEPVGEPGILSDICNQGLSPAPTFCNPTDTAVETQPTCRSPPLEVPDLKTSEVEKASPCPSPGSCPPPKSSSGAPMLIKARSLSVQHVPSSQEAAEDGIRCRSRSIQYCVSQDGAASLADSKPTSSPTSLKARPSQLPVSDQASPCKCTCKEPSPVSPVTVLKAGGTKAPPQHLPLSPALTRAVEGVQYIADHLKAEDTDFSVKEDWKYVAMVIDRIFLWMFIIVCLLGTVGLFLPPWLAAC
Sequence (P12390 25-500): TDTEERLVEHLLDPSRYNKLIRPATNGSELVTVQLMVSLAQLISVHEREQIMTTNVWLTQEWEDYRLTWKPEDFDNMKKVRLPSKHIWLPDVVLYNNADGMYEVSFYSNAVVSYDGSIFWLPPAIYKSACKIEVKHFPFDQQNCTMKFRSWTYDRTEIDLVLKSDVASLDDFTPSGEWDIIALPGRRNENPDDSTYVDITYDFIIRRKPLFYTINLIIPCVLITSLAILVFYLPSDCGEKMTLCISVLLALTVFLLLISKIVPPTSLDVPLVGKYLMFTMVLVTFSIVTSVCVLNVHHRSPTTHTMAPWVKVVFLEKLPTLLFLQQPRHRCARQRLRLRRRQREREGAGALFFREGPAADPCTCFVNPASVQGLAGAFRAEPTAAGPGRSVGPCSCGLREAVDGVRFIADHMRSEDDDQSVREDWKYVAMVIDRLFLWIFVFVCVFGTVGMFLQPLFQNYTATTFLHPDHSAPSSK
Protocol Text: biochemical
Assay Context: calculated from IC50 values using the method of Cheng et al.
Readout Label: log10(Ki) (log10 of the value in nM)
Each number you see is log10 of Ki, and the unit inside the log is nM.

Answered cases to consult:
Compound	log10(Ki)
CCOc1cncc(/C=C/CCNC)c1 [Sample No. 7]	0.70
CNCC/C=C/c1cncc(-c2ccccc2)c1 [Sample No. 8]	2.26

*Q* Reported log10(Ki) for CNCC/C=C/c1cncc(OC(C)C)c1 [Sample No. 4] : what is it?
*A* 0.78

*Q* Need log10(Ki) of CNCC/C=C/c1cncc(OCc2ccccc2)c1 [Sample No. 1] , thanks.
*A* 0.70

*Q* I have this compound here, CNCC/C=C/c1cncc(COC)c1 [Sample No. 5] , and I need its recorded log10(Ki).
*A* 2.11

*Q* Request the reported log10(Ki) associated with NCC/C=C/c1cccnc1.O=C(O)/C=C/C(=O)O.O=C(O)/C=C/C(=O)O [Sample No. 6, difumarate]
*A* 2.08

*Q* // returns reported log10(Ki) for input CNCC/C=C/c1cncc(Oc2ccccc2)c1 [Sample No. 3]
*A* 1.32

*Q* Would you mind telling me what log10(Ki) value was observed for CNCC/C=C/c1cncc(N)c1 [Sample No. 9] ?
*A* 2.82

*Q* Fill in: log10(Ki) of NCC/C=C/c1cncc(Br)c1 [Sample No. 2] is ___
*A* 1.90
